test: qHTS Assay for Rab9 Promoter Activators; conditions: Huh7 Rab9 promoter-luciferase reporter, luminescence, 24 h; series mostly up to 9.22 µM; note: nearly all actives have a fitted effect of over 60% in size
Screen size: about 320,000 compounds; about 9,100 (2.8%) were called active. Another 3% or so got no clear call; they are omitted. Calls come from the whole dose curve; as a rule, active = well fitted activation curve with a large enough effect; inconclusive = small, poorly fitted or top-dose-only effect; inactive = no such curve, though single readings can be large or run the other way. The full list was thinned out, with actives kept by preference.
Outcomes: active, inactive

# Compound, Qualitative label
data = [
    ("O=C(NNC(=O)c1ccc(Cl)cc1Cl)c1cccs1", "active"),
    ("CN(CC(=O)Nc1ccc(Cl)cc1)C(=O)c1ccc(COc2ccccc2)cc1", "inactive"),
    ("O=C(Nc1cccc(F)c1)NC1CCCc2ccccc21 (centres undefined)", "inactive"),
    ("CCOc1ccccc1/C=N/Nc1nc2ccccc2o1", "inactive"),
    ("N#Cc1ccccc1S(=O)(=O)N1CCN(Cc2c(O)ccc3ccccc23)CC1", "inactive"),
    ("O=C(Nc1cccc(F)c1)NC1CCCCCCC1", "active"),
    ("CCOC(=O)Cn1nnnc1C", "inactive"),
    ("COc1ccc2[nH]cc(CCN3C(=O)c4ccc(C(=O)O)cc4C3=O)c2c1", "active"),
    ("CSc1ccccc1OCc1cc(C(=O)N(C)CCc2c(C)n[nH]c2C)no1", "inactive"),
    ("Cc1ccc(C(=O)Nc2ccc(NC(=O)c3cccs3)cc2)c(C)c1", "inactive"),
    ("COC(=O)[C@@H]1CCCN1C(=O)c1cc(COc2cccc3cccnc23)on1", "inactive"),
    ("O=C(Nc1ccccc1)c1ccc(NC(=O)c2cccs2)cc1", "inactive"),
    ("Cc1c(NC(=O)CSc2nnc(-c3cccnc3)n2N)c(=O)n(-c2ccccc2)n1C", "inactive"),
    ("Cc1ccc(NNC(=O)c2cccs2)cc1Cl", "inactive"),
]
